experimental_system: thrombin (Bos taurus, UniProt P00735)
Construct: purchased Mochida Pharmaceutical Co., Ltd
protocol_details: Fibrinogen coagulation time (thrombin-induced clotting of bovine fibrinogen)
Type: biochemical
settings: thrombin 5 units/ml, borate saline buffer pH 7.4, 25° C, normal coagulation time 50-55 seconds prolonged to 100-110 seconds
Reported Concentration required to prolong the coagulation time by a factor of two by item:
Express the result in µM but write the number alone.

Example molecules with recorded Concentration required to prolong the coagulation time by a factor of two:
COCCN(CC(=O)O)C(=O)[C@H](CCCNC(=N)N)NS(=O)(=O)c1ccc2ccc(C)cc2c1	0.2
COCCN(CC(=O)O)C(=O)[C@H](CCCNC(=N)N)NS(=O)(=O)c1cccc2ccc(C)cc12	20
CCCCN(CC(=O)O)C(=O)[C@H](CCCNC(=N)N)NS(=O)(=O)c1ccc2ccc(C)cc2c1	0.3

Query string: Specify measured Concentration required to prolong the coagulation time by a factor of two for COCCN(CC(=O)O)C(=O)[C@H](CCCNC(=N)N)NS(=O)(=O)c1cccc2c1CCCC2 .
Result string: 10

Query string: Specify measured Concentration required to prolong the coagulation time by a factor of two for CCCCN(CC(=O)O)C(=O)[C@H](CCCNC(=N)N)NS(=O)(=O)c1cccc2c1CCCC2 .
Result string: 20

Hello, the source for this data is patent US4072743A, in case you need it.
